- study system: T1, MMP-26 catalytic domain, tagged with hexa-histidine (human, UniProt Q9NRE1 90-261)
- T1 construct: the forward primer adds Met-Ala before it; also called MMP-26 target protein; Matrilysin-2; not shown: Also any N-terminal residues added by the forward primer (Met-Ala according to our card; the primers were not visible to me)
- T1 sequence: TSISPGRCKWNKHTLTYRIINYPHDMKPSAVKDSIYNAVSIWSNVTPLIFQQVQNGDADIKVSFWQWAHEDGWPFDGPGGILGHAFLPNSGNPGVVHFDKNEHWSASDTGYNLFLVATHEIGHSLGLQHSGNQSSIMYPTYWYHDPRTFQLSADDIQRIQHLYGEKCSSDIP
- assay procedure: bead-based ELISA, MMP-26 on nickel beads, IgG4 culture supernatant
This listing pairs binders with measured F > B (fold over background).
Give the value, in units of fold over background, as a plain number.

binder: C04 (antibody, human IgG4, V domains shown, whole human IgG4) VH: EVQLLESGGGLVQPGGSLRLSCAASGFTFSMYFMVWVRQAPGKGLEWVSWIGSSGGETPYADSVKGRFTISRDNSKNTLYLQMNSLRAEDTAVYYCARGYSSGWYVMGDYWGQGTLVTVSS VL: QSALTQPPSASGTPGQRVTISCSGTSSNIGSHYVFWYQQLPGTAPKLLIHRNDERPSGVPDRFSGSKSGTSASLAISGLQSEDEADYYCATWDDNLNGPVFGGGTKLT
F > B (fold over background): 2.9

binder: D06 (antibody, human IgG4, V domains shown, whole human IgG4) VH: EVQLLESGGGLVQPGGSLRLSCAASGFTFSGYIMEWVRQAPGKGLEWVSVIVSSGGFTMYADSVKGRFTISRDNSKNTLYLQMNSLRAEDTAVYYCARVGDSKGGYYLDYWGQGTLVTVSS VL: DIQMTQSPSSLSASVGDRVTITCRTSQIINTYLNWYQQKPGKAPKLLIYAASTLQGGVPSRFSGSGSGTDFTLTIKSLQPDDFATYYCQQSYTSPRTFGQGTKVEIKR
F > B (fold over background): 3.5

binder: A08 (antibody, human IgG4, V domains shown, whole human IgG4) VH: EVQLLESGGGLVQPGGSLRLSCAASGFTFSVYDMPWVRQAPGKGLEWVSVIYPSGGFTRYADSVKGRFTISRDNSKNTLYLQMNSLRAEDTAVYYCAADPTIQLWAYYYGMDVWGQGTTVTVSS VL: QSVLTQPPSVSGTPGQRVTISCSGGYPNMGSNYAHWYQQLPGTAPKLLIYNDNQRPSGVPDRFSGSKSGTSASLAISGLRSEDEADYYCAAWDDSLSGPVFGGGTKLTVLG
F > B (fold over background): 1.94

Shifting focus to the binder that follows.
Tell me the measured F > B (fold over background) of C03 (antibody, human IgG4, V domains shown, whole human IgG4) VH: EVQLLESGGGLVQPGGSLRLSCAASGFTFSLYMMKWVRQAPGKGLEWVSVISSSGGYTQYADSVKGRFTISRDNSKNTLYLQMNNLRAEDTAVYYCARGWDVWGKGTTVTVSS VL: QSALTQPPSASGTPGQRVTISCSGSNSNIGGNIVIWLQQLPGTAPKLMIYDVSDRPSGVPDRFSGSKSGTSASLAISGLQSEDEADYYCAAWDDSLNGWVFGGGTKLTVLS , please.
4.1

Data provenance is patent US7514534.
